Hello, the source for this data is patent US11420970B1, in case you need it.

The compounds listed here are annotated with their IC50.
# SUBJECT_OF_TEST: NSD2 [1-1365] (Homo sapiens (Human), UniProt O96028)
# Sequence (O96028 whole entry): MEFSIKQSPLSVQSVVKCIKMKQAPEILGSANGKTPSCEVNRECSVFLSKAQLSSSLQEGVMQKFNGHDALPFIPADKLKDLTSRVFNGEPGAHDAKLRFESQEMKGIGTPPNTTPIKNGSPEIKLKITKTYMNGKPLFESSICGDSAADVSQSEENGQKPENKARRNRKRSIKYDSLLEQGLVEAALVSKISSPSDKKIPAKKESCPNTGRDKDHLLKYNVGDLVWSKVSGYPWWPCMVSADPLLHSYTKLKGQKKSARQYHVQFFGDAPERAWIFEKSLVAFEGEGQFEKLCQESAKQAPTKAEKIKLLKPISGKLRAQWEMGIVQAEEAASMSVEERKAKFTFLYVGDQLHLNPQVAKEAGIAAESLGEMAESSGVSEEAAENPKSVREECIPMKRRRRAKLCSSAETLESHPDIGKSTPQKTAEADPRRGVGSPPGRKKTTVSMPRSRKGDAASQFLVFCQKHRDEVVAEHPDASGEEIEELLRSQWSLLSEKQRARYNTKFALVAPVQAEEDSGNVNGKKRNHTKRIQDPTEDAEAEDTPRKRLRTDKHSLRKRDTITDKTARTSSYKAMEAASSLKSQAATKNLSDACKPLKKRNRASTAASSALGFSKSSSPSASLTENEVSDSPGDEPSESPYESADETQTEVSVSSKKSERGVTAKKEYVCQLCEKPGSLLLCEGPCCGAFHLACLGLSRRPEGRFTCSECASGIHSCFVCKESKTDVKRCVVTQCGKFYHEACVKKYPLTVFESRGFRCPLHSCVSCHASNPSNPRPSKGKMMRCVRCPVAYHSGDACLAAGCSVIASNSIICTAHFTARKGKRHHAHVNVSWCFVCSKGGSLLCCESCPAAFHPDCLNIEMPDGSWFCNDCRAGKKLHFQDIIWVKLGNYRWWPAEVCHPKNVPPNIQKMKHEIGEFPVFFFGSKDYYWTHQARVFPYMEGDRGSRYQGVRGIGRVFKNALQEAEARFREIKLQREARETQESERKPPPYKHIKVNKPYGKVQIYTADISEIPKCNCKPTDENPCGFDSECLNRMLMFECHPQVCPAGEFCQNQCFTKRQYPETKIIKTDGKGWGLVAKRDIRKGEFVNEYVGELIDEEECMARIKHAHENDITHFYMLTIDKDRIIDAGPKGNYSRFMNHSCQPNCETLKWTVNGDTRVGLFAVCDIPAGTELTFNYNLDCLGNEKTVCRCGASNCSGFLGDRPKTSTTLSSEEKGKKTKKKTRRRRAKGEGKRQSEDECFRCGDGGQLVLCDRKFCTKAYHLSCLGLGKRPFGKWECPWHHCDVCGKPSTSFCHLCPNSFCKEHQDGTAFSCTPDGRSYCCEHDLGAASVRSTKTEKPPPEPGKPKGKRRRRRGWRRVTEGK
# METHOD_NOTES: LC-MS/MS-based NSD2 enzymatic assay (SAH production)
# Type: biochemical
# CONDITION_INFO: NSD2 biochemical activity, class symbols; read-out: NSD2 IC50

# COMPOUND, IC50
rows = [
    ("Nc1ncnc2c1ncn2Cc1cc(-c2ccc(F)c(F)c2)ncc1N1CCC[C@](N)(Cc2cnccn2)C1 [Example 74]", "10 to 1000 nM"),
    ("CC(C)C(C)C(=O)C1(N)CCCN(c2cnc(-c3ccc(F)c(F)c3)cc2Cn2cnc3c(N)ncnc32)C1 (stereo not shown) [Example 89]", "10 to 1000 nM"),
    ("COc1ccc(-c2cc(Cn3cnc4c(N)ncnc43)c(N3CCC[C@](N)([C@@H](O)C(F)F)C3)cn2)c(C(F)F)c1 [Example 162]", "1 to 10 nM"),
    ("Nc1ncnc2c1ncn2Cc1cc(-c2ccc(F)cn2)ncc1N1CCC[C@](N)([C@@H](O)C(F)F)C1 [Example 155]", "10 to 1000 nM"),
    ("COC[C@@]1(N)CCCN(c2cnc(-c3cc(Cl)ccc3F)cc2Cn2cnc3c(N)ncnc32)C1 [Example 26]", "1 to 10 nM"),
    ("COC(=O)C[C@@]1(N)CCCN(c2cnc(-c3cccc(F)c3)cc2Cn2cnc3c(N)ncnc32)C1 [Example 73]", "10 to 1000 nM"),
    ("COc1ccc(-c2cc(Cn3cnc4c(N)ncnc43)c(N3CC[C@@H](F)[C@@H](N)C3)cn2)cc1F [Example 5]", "10 to 1000 nM"),
]

###

# SUBJECT_OF_TEST: NSD2 [1-1365] (Homo sapiens (Human))
# METHOD_NOTES: LC-MS/MS-based NSD2 enzymatic assay (SAH production)
# Assay type: biochemical
# CONDITION_INFO: read-out: NSD2 IC50
EXPERIMENTAL_READOUT: IC50

# COMPOUND, MEASURED_RESULT
rows = [
    ("CS(=O)(=O)CC1(N)CCCN(c2cnc(-c3ccc(F)c(F)c3)cc2Cn2cnc3c(N)ncnc32)C1 (stereo not shown)", "> 1000 nM"),
    ("COc1ccc(-c2cc(Cn3cnc4c(N)ncnc43)c(N3CCC[C@](N)(c4cccc(Cl)n4)C3)cn2)cc1", "1 to 10 nM"),
    ("Nc1ncnc2c1ncn2Cc1cc(-c2ccc(F)c(F)c2)ncc1N1CCC[C@](N)(c2cccc(C(F)F)n2)C1", "10 to 1000 nM"),
    ("COc1cc(F)nc([C@@]2(N)CCCN(c3cnc(-c4ccc(F)c(F)c4)cc3Cn3cnc4c(N)ncnc43)C2)c1", "1 to 10 nM"),
    ("Nc1ncnc2c1ncn2Cc1cc(-c2ccc(F)cc2)ncc1N1CCC[C@](N)(c2ccc(F)c(Cl)n2)C1", "1 to 10 nM"),
    ("Nc1ncnc2c1ncn2Cc1cc(-c2ccc3c(c2)OCO3)ncc1N1CCCC(N)(c2cccc(Cl)n2)C1 (stereo not shown)", "10 to 1000 nM"),
    ("Nc1ncnc2c1ncn2Cc1cc(-c2ccc(F)c(F)c2)ncc1N1CCCC(N)(c2cncc(Cl)n2)C1 (stereo not shown)", "10 to 1000 nM"),
    ("COc1ccc(-c2cc(Cn3cnc4c(N)ncnc43)c(N3CCC[C@](N)(CC(F)(F)F)C3)cn2)cc1F", "10 to 1000 nM"),
    ("N#Cc1ccc(-c2cc(Cn3cnc4c(N)ncnc43)c(N3CCCC(N)(c4cccc(Cl)n4)C3)cn2)cc1F (stereo not shown)", "10 to 1000 nM"),
    ("Nc1ncnc2c1ncn2Cc1cc(-c2ccc(F)c(F)c2)ncc1N1CCC[C@]2(COC(=O)N2)C1", "10 to 1000 nM"),
    ("Nc1nccc2c1ncn2Cc1cc(C2CCC2)ncc1N1CCCC(N)(c2cccc(Cl)n2)C1 (stereo not shown)", "10 to 1000 nM"),
    ("Nc1ncnc2c1ncn2Cc1cc(-c2ccc(F)c(F)c2)ncc1N1CCCC(N)(c2cccnc2)C1 (stereo not shown)", "> 1000 nM"),
    ("COc1cc(F)c(-c2cc(Cn3cnc4c(N)ncnc43)c(N3CCC[C@](N)(c4cccc(Cl)n4)C3)cn2)cc1F", "10 to 1000 nM"),
    ("Cn1cc(C2(N)CCCN(c3cnc(-c4ccc(F)c(F)c4)cc3Cn3cnc4c(N)nccc43)C2)cn1 (stereo not shown)", "10 to 1000 nM"),
    ("Cn1ccc([C@@]2(N)CCCN(c3cnc(-c4ccc(F)c(F)c4)cc3Cn3cnc4c(N)ncnc43)C2)n1", "1 to 10 nM"),
    ("Nc1ncnc2c1ncn2Cc1cc(-c2ccc(OC(F)F)c(F)c2)ncc1N1CCCC(N)(c2cccc(Cl)n2)C1 (stereo not shown)", "10 to 1000 nM"),
    ("COc1ccc(-c2cc(Cn3cnc4c(N)ncnc43)c(N3CCC[C@](N)([C@@H](O)C(F)F)C3)cn2)c(Cl)c1", "10 to 1000 nM"),
    ("Nc1ncnc2c1ncn2Cc1cc(-c2ccc(F)c(F)c2)ncc1N1CCC[C@](N)([C@H](O)C(F)(F)F)C1", "10 to 1000 nM"),
    ("Nc1ncnc2c1ncn2Cc1cc(-c2cc(F)c(F)cc2C(F)F)ncc1N1CCC[C@](N)([C@@H](O)C(F)F)C1", "10 to 1000 nM"),
    ("COc1ncc(-c2cc(Cn3cnc4c(N)ncnc43)c(N3CCC[C@](N)(c4cccc(Cl)n4)C3)cn2)cc1F", "10 to 1000 nM"),
    ("Nc1ncnc2c1ncn2Cc1cc(-c2cc(F)c(F)cc2F)ncc1N1CCC[C@](N)([C@@H]2COCCO2)C1", "10 to 1000 nM"),
    ("COc1ccc(-c2cc(Cn3cnc4c(N)ncnc43)c(N3CCC[C@](N)(c4ccc(F)c(C)n4)C3)cn2)cc1F", "10 to 1000 nM"),
    ("Nc1ncnc2c1ncn2Cc1cc(-c2ccc(F)cc2)ncc1N1CCCC(N)(c2csc(Cl)n2)C1 (stereo not shown)", "10 to 1000 nM"),
    ("COc1ccc(-c2cc(Cn3cnc4c(N)ncnc43)c(N3CCC[C@](N)(c4cccc(Cl)n4)C3)cn2)c(F)c1", "10 to 1000 nM"),
    ("COc1cnc(-c2cc(Cn3cnc4c(N)ncnc43)c(N3CCC[C@](N)(c4cccc(Cl)n4)C3)cn2)cc1F", "1 to 10 nM"),
    ("Nc1ncnc2c1ncn2Cc1cc(-c2ccc(F)c(F)c2)ncc1N1CCCC2(COCCN2)C1 (stereo not shown)", "> 1000 nM"),
    ("COc1cc(F)ccc1-c1cc(Cn2cnc3c(N)ncnc32)c(N2CCC[C@](N)([C@@H](O)C(F)F)C2)cn1", "10 to 1000 nM"),
    ("COc1ccc(-c2cc(Cn3cnc4c(N)ncnc43)c(N3CCCC(N)(C(C)F)C3)cn2)cc1F (stereo not shown)", "10 to 1000 nM"),
]
